Settings: 291.15 K; 101.33 kPa; Liquid; Vibrating tube method
Numbers after ± are expanded uncertainties.
readout kind: mass density

Answered cases to consult:
OCC(F)(F)C(F)(F)F; 1518.88 ± 2.1 kg/m3
OCC(F)(F)C(F)(F)C(F)(F)C(F)(F)C(F)(F)F; 1721.89 ± 2.7 kg/m3
OCC(F)(F)C(F)(F)C(F)(F)F; 1608.97 ± 2.4 kg/m3

// mass density value for OCC(F)(F)C(F)(F)C(F)(F)C(F)(F)F : 1664.91 ± 5.4 kg/m3

###

Quick reference: mass density of the listed items.
Conditions: 344.15 K; 101.33 kPa; Liquid; Vibrating tube method
# value in kg/m3; strip the unit string

OCC(F)(F)C(F)(F)C(F)(F)C(F)(F)C(F)(F)F; 1612.64
OCC(F)(F)C(F)(F)C(F)(F)C(F)(F)F; 1554.39
OCC(F)(F)C(F)(F)C(F)(F)F; 1496.65

The value of mass density measured for the molecule OCC(F)(F)C(F)(F)F turned out to be 1408.78
